Consider the following IC50 data for Serine/threonine-protein kinase PLK1 (Homo sapiens, UniProt P53350), collected from several reports.

[
  {
    "compound": "CCOC(=O)c1ccc(NC(=O)c2c(N)n(Cc3ccccc3)c(=O)[nH]c2=O)cc1",
    "IC50": "> 50 µM"
  }
]

# input Record request: IC50 value, item C=CCSc1nccc(-c2cc(Cl)sc2Cl)n1
# output > 50 µM

# input Record request: IC50 value, item Cc1ccc(COc2cc(-n3cnc4ccccc43)sc2C(N)=O)cc1
# output 0.126 µM

# input Record request: IC50 value, item O=C(NC(NC(=S)Nc1ccc(Cl)cc1Cl)C(Cl)(Cl)Cl)c1cccc([N+](=O)[O-])c1 (stereo not drawn)
# output > 50 µM

# input Record request: IC50 value, item COC(=O)CNC(=O)C12CC3(C)CC(C)(CC(C)(C3)C1)C2
# output > 50 µM

# input Record request: IC50 value, item Cc1nc2cccc(C)n2c(=O)c1Cl
# output > 50 µM

# input Record request: IC50 value, item O=C1C(=C2C(=O)c3ccccc3C2=O)Nc2ccccc21
# output > 50 µM
